The origin of these recorded values is patent US9572814B2.

experimental_details: clinical;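 note: healthy young adult men and women, dosed in the morning. Doxepin in plasma by validated HPLC-MS/MS (LLOQ 0.05 ng/mL), parameters by noncompartmental analysis on actual elapsed time after dosing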
condition_label: both, human, plasma, po, 6 milligram
reported_metric: Cmax (ng/mL)
Could you give me the number in ng/mL? Just the number is fine.

Request: Entry under review: CN(C)CCC=C1c2ccccc2COc2ccccc21 [doxepin] . Reported Cmax?
Result: 0.854
